Measured IC50, listed per entry for reference.
- test system: Leucine-rich repeat serine/threonine-protein kinase 2 (Homo sapiens, UniProt Q5S007, G2019S)
- Sequence (Q5S007 whole entry G2019S, the tested form may be a part): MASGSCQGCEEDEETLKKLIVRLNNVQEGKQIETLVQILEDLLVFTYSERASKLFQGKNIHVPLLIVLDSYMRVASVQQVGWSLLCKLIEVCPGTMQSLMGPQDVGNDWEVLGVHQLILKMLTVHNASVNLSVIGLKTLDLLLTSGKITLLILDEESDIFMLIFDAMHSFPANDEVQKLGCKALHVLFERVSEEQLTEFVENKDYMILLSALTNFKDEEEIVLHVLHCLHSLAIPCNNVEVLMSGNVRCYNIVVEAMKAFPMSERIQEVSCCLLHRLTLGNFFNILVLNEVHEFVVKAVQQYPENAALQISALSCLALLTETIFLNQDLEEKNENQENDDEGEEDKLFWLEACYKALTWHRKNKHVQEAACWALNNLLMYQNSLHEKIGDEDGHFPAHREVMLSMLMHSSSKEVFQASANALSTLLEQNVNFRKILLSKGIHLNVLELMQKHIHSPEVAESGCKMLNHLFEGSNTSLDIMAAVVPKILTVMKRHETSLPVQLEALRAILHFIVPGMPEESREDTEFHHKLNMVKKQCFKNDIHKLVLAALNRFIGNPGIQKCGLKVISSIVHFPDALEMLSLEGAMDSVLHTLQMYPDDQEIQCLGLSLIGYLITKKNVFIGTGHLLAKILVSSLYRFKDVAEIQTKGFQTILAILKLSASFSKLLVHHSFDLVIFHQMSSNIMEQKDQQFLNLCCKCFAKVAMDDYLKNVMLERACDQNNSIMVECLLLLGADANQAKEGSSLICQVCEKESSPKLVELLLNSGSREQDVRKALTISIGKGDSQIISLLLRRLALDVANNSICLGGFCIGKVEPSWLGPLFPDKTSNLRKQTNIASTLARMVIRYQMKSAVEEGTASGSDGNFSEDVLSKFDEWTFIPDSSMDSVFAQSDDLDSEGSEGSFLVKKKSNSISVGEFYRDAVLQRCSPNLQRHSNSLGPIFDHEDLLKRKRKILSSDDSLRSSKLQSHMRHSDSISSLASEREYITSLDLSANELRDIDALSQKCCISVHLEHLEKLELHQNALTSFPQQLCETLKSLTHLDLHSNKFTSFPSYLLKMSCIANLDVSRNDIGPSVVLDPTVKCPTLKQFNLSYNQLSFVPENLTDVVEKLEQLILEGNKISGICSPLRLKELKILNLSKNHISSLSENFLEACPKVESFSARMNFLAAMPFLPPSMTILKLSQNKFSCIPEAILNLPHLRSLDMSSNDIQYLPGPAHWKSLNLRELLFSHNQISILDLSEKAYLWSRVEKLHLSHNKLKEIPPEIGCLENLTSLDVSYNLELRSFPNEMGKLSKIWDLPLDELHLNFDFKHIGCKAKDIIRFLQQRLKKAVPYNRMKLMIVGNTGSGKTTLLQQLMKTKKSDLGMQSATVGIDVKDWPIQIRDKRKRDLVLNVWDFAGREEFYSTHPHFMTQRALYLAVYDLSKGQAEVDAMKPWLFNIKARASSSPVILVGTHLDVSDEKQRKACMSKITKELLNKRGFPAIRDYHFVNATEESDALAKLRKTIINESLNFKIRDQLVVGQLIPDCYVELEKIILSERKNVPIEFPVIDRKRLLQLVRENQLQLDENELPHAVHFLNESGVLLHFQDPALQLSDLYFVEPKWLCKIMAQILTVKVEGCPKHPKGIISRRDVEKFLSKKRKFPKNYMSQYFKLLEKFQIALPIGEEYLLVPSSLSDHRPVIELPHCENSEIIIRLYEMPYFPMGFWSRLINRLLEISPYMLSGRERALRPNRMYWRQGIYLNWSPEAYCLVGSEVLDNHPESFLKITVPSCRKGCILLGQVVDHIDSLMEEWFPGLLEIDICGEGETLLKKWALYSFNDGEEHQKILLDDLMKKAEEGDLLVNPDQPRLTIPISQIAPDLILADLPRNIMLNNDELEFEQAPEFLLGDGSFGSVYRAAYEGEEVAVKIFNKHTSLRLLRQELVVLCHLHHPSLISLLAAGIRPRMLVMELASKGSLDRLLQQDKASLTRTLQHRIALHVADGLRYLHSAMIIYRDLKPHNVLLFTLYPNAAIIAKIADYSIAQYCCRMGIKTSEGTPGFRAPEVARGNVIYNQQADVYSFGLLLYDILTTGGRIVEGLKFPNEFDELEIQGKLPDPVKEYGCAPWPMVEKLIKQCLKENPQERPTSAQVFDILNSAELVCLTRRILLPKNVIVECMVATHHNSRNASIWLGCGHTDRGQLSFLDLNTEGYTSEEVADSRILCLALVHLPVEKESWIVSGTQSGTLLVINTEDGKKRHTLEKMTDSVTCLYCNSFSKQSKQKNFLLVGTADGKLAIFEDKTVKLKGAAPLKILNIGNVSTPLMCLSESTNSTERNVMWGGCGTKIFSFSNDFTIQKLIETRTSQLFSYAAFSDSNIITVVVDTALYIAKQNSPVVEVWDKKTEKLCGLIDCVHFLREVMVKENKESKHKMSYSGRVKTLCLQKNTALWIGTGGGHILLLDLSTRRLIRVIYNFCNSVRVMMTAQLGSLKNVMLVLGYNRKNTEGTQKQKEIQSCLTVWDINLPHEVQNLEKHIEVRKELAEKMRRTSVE
- method description: Inhibition of recombinant human GST-tagged LRRK2 (970 to 2527 residues) G2019S mutant expressed in baculovirus using fluorescein-ERM as substrate preincubated for 30 mins followed by substrate addition measured after 1 hr by TR-FRET assay
Answer with a number only, understood to be in nM.

| compound string | IC50 [nM] |
| --- | --- |
| c1cc(-c2n[nH]c3ccc(OC4CC4)cc23)cc(N2CCOCC2)n1 | 41 |
| CC(C)Oc1ccc2[nH]nc(-c3ccnc(N4C[C@@H](F)[C@H](F)C4)c3)c2c1 | 6.6 |

Let me know recorded IC50 for `C[C@@H]1CN(c2cc(-c3n[nH]c4ccc(OC5(C)CC5)cc34)ncn2)CCO1` , thanks.
2

* * *

- test system: Cytochrome P450 2D6 (Homo sapiens)
- Sequence (P10635 whole entry): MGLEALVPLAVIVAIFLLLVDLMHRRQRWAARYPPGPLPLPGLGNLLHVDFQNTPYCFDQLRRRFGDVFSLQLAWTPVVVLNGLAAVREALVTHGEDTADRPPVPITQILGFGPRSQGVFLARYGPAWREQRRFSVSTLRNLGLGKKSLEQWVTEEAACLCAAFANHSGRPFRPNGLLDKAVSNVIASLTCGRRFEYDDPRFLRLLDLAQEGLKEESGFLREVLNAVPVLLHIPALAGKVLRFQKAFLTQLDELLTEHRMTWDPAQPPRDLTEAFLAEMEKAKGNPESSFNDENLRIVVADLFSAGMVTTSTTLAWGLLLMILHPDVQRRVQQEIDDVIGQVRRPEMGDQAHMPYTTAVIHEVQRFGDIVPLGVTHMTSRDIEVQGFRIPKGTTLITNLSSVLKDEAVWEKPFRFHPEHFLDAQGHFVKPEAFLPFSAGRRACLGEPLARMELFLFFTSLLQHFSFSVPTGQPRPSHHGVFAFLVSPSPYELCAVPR
experimental endpoint: IC50

Write IC50 of `C[C@@H]1CN(c2cc(-c3n[nH]c4ccc(OC5(C)CC5)cc34)ncn2)C[C@H](C)O1` ; system used: Cytochrome P450 2D6 (Homo sapiens)
> 50 µM

* * *

- test system: Leucine-rich repeat serine/threonine-protein kinase 2 (Homo sapiens, UniProt Q5S007, G2019S)
- method description: Inhibition of recombinant human GST-tagged LRRK2 (970 to 2527 residues) G2019S mutant expressed in baculovirus using fluorescein-ERM as substrate preincubated for 30 mins followed by substrate addition measured after 1 hr by TR-FRET assay
Measured pIC50, listed per entry for reference.
pIC50 is a log-scale quantity: -log10 of the concentration expressed in molar.

| compound string | experimental endpoint | number |
| --- | --- | --- |
| c1ccc(-c2n[nH]c3ccccc23)nc1 | pIC50 | 5.21 |

Let me know recorded pIC50 for `c1cncc(-c2n[nH]c3ccccc23)c1` , thanks.
5.91

Let me know recorded pIC50 for `N#Cc1ccc2[nH]nc(-c3ccnc(N4CCOCC4)c3)c2c1` , thanks.
7.19

Let me know recorded pIC50 for `c1cc(-c2n[nH]c3ccc(C4CC4)cc23)cc(N2CCOCC2)n1` , thanks.
7.89

Let me know recorded pIC50 for `c1ccc2c(-c3ccnc(N4CCOCC4)c3)n[nH]c2c1` , thanks.
7.92

Let me know recorded pIC50 for `CC(C)Oc1ccc2[nH]nc(-c3ccnc(N4CCN(C)CC4)c3)c2c1` , thanks.
9.10

Let me know recorded pIC50 for `c1ccc2c(-c3ccncc3)n[nH]c2c1` , thanks.
6.04

Let me know recorded pIC50 for `CC(C)Oc1ccc2[nH]nc(-c3ccnc(N4CCOCC4)c3)c2c1` , thanks.
9.15

Let me know recorded pIC50 for `COc1ccc2[nH]nc(-c3ccnc(N4CCOCC4)c3)c2c1` , thanks.
7.82

Let me know recorded pIC50 for `COCCNc1cc(-c2n[nH]c3ccccc23)ccn1` , thanks.
7.01

Let me know recorded pIC50 for `c1ccc2c(-c3cncc(N4CCOCC4)c3)n[nH]c2c1` , thanks.
6.59

Let me know recorded pIC50 for `CC1(Oc2ccc3[nH]nc(-c4cc(N5CCN(S(C)(=O)=O)CC5)ncn4)c3c2)CC1` , thanks.
8.66

* * *

- method description: Intrinsic clearance in rat hepatocytes assessed per million cells at 1 uM after 180 mins by LC-MS/MS analysis
- Assay type: ADME, cell-based, Hepatocyte
- experimental conditions: read-out: CLH
experimental endpoint: hepatocyte CLint at 1 µM (µL/min/1e6 cells)
Answer with a number only, understood to be in µL/min/1e6 cells.

Past entries and their recorded results:
| compound string | number |
| --- | --- |
| CC(C)Oc1ccc2[nH]nc(-c3ccnc(N4CCOCC4)c3)c2c1 | 49 |
| CC1(Oc2ccc3[nH]nc(-c4cc(N5CCOCC5)ncn4)c3c2)CC1 | 18 |
| c1cnnc(-c2ccc3[nH]nc(-c4ccnc(N5CCOCC5)c4)c3c2)c1 | 6 |
| CC(C)Oc1ccc2[nH]nc(-c3ccnc(N4CCC(n5cnnc5)CC4)c3)c2c1 | 19 |
| CC(C)Oc1ccc2[nH]nc(-c3cc(N4CCOCC4)ncn3)c2c1 | 13 |
| c1ccc2c(-c3cc(N4CCOCC4)ncn3)n[nH]c2c1 | 30 |
| C[C@H]1CN(c2cc(-c3n[nH]c4ccc(OC5(C)CC5)cc34)ncn2)CCO1 | 26 |
| C[C@@H]1CN(c2cc(-c3n[nH]c4ccc(OC5(C)CC5)cc34)ncn2)C[C@H](C)O1 | 15 |

Let me know recorded hepatocyte CLint at 1 µM for `CC(C)Oc1ccc2[nH]nc(-c3ccnc(N4CCN(S(C)(=O)=O)CC4)c3)c2c1` , thanks.
32

* * *

- method description: Efflux ratio of permeability […] in pig LLC-PK1 cells expressing rat MDR1
- Format: ADME, cell-based, Sus scrofa
experimental endpoint: Ratio
Number, no unit, nothing else.

| compound string | number |
| --- | --- |
| N#Cc1ccc2[nH]nc(-c3ccnc(N4CCOCC4)c3)c2c1 | 1.3 |
| C[C@H]1CN(c2cc(-c3n[nH]c4ccc(OC5(C)CC5)cc34)ncn2)CCO1 | 0.5 |
| c1cc(-c2n[nH]c3ccc(OC4CC4)cc23)cc(N2CCOCC2)n1 | 0.3 |
| CC(C)Oc1ccc2[nH]nc(-c3ccnc(N4C[C@@H](F)[C@H](F)C4)c3)c2c1 | 0.7 |
| c1ccc2c(-c3cncc(N4CCOCC4)c3)n[nH]c2c1 | 0.5 |

With those in mind, consider the next compound.
Let me know recorded Ratio for `COc1ccc2[nH]nc(-c3ccnc(N4CCOCC4)c3)c2c1` , thanks.
0.4

* * *

Measured AUC(0-t) at 8 h, listed per entry for reference.
- method description: AUC (0 to 8 hrs) in Han-Wistar rat at 2 mg/kg, iv measured after 2 to 480 mins by LC-MS/MS analysis
- Type: ADME, organism-based
- Design: time < 8 hr, dose 2 mg/kg, route intravenous
- experimental conditions: in vivo
Answer with a number only, understood to be in µM·h.

| compound string | number |
| --- | --- |
| CC(C)Oc1ccc2[nH]nc(-c3ccnc(N4CCOCC4)c3)c2c1 | 1 |

With those in mind, consider the next molecule.
Let me know recorded AUC(0-t) at 8 h for `C[C@@H]1CN(c2cc(-c3n[nH]c4ccc(OC5(C)CC5)cc34)ncn2)C[C@H](C)O1` , thanks.
0.66

* * *

- method description: Fraction unbound in rat plasma at 10 uM after 4 hrs by rapid equilibrium dialysis method
- Type: ADME, cell-free
experimental endpoint: fraction unbound at 4 h, 10 µM
Number, no unit, nothing else.

Let me know recorded fraction unbound at 4 h, 10 µM for C[C@@H]1CN(c2cc(-c3n[nH]c4ccc(OC5(C)CC5)cc34)ncn2)C[C@H](C)O1 [MLi-2] , thanks.
0.012

* * *

- method description: MRT in Han-Wistar rat at 2 mg/kg, iv measured after 2 to 480 mins by LC-MS/MS analysis
- Assay type: ADME, organism-based
- experimental conditions: in vivo
experimental endpoint: MRT (h)
Answer with a number only, understood to be in h.

Let me know recorded MRT for `C[C@@H]1CN(c2cc(-c3n[nH]c4ccc(OC5(C)CC5)cc34)ncn2)C[C@H](C)O1` , thanks.
1.7

* * *

- method description: Intrinsic clearance in rat hepatocytes assessed per million cells at 1 uM after 180 mins by LC-MS/MS analysis
- Assay type: ADME, cell-based, Hepatocyte
- experimental conditions: read-out: CLH
experimental endpoint: hepatocyte CLint at 1 µM (µL/min/1e6 cells)
Answer with a number only, understood to be in µL/min/1e6 cells.

Let me know recorded hepatocyte CLint at 1 µM for `COc1ccc2[nH]nc(-c3ccnc(N4CCOCC4)c3)c2c1` , thanks.
28

Let me know recorded hepatocyte CLint at 1 µM for `c1cc(-c2n[nH]c3ccc(OC4CC4)cc23)cc(N2CCOCC2)n1` , thanks.
32

Let me know recorded hepatocyte CLint at 1 µM for `CC(C)Oc1ccc2[nH]nc(-c3ccnc(N4CCN(C)CC4)c3)c2c1` , thanks.
36

Let me know recorded hepatocyte CLint at 1 µM for `O=S(=O)(c1ccc2[nH]nc(-c3ccnc(N4CCOCC4)c3)c2c1)C1CC1` , thanks.
15

Let me know recorded hepatocyte CLint at 1 µM for `CC(C)Oc1ccc2[nH]nc(-c3ccnc(N4C[C@@H](F)[C@H](F)C4)c3)c2c1` , thanks.
39

* * *

- method description: Equilibrium solubility in simulated gastric fluid after 24 hrs by HPLC method
- Format: physicochemical
experimental endpoint: solubility thermodynamic at 24 h

Let me know recorded solubility thermodynamic at 24 h for C[C@@H]1CN(c2cc(-c3n[nH]c4ccc(OC5(C)CC5)cc34)ncn2)C[C@H](C)O1 [MLi-2] , thanks.
14 to 38 µg/mL
